# Tgt: HLA-DRB1*04:01 (Homo sapiens, UniProt P01903+P01911, A100K/A169T/F76Y/I96L/K127E/L162R/M171V/N62H/P40V/Q125Y/R42H/S133A/S149N/S66Y/V115G/V209L/W38E)
# Construct: EBV transformed homozygous cell lines were used as sources of MHC molecules; endogenous in cells; host or cells: EBV transformed homozygous cell lines
# Method Summary: HLA class II peptide binding, inhibition of radiolabeled peptide binding to purified MHC
# Test Conditions: citrullinated 15-mer peptide (X = citrulline); purified HLA-DRB1*04:01; read-out: DRB1*04:01 binding capacity, Cit peptide (IC50 nM)
Square brackets hold non-standard residues; d marks the D form. Peptide text beside a SMILES is read from it. Cit = NC(=O)NCCC[C@H](N)C(=O)O
I'd be grateful if you could share measured IC50 for these entries.

Notebook: CC(C)C[C@H](NC(=O)CNC(=O)[C@@H]1CCCN1C(=O)[C@H](Cc1ccccc1)NC(=O)CNC(=O)[C@H](CCCNC(=N)N)NC(=O)[C@H](CCC(=O)O)NC(=O)CNC(=O)[C@H](CCCNC(N)=O)NC(=O)[C@H](CCC(N)=O)NC(=O)CNC(=O)[C@@H]1CCCN1)C(=O)N1CCC[C@H]1C(=O)NCC(=O)N1CCC[C@H]1C(=O)O [PGQXGERGFPGLPGP] (H-PGQ[Cit]GERGFPGLPGP-OH) , IC50 read as > 40000 nM

Notebook: "CSCC[C@H](NC(=O)[C@H](CCC(=O)O)NC(=O)[C@H](CCC(=O)O)NC(=O)[C@H](CCCCN)NC(=O)[C@H](CCSC)NC(=O)[C@@H](N)CC(N)=O)C(=O)N[C@@H](C)C(=O)N[C@@H](CCCNC(=N)N)C(=O)N[C@@H](Cc1c[nH]cn1)C(=O)N[C@@H](CC(C)C)C(=O)N[C@@H](CCCNC(N)=O)C(=O)N[C@@H](CCC(=O)O)C(=O)N[C@@H](Cc1ccc(O)cc1)C(=O)N[C@@H](CCC(N)=O)C(=O)N[C@@H](CC(=O)O)C(=O)O" , IC50 read as > 40000 nM

Notebook: CC(C)C[C@H](NC(=O)[C@H](CC(N)=O)NC(=O)[C@@H](N)[C@@H](C)O)C(=O)N[C@@H](CC(=O)O)C(=O)N[C@@H](CO)C(=O)N[C@@H](CC(C)C)C(=O)N1CCC[C@H]1C(=O)N[C@@H](CC(C)C)C(=O)N[C@H](C(=O)N[C@@H](CC(=O)O)C(=O)N[C@H](C(=O)N[C@@H](Cc1c[nH]cn1)C(=O)N[C@@H](CO)C(=O)N[C@@H](CCCCN)C(=O)N[C@@H](CCCNC(N)=O)C(=O)O)[C@@H](C)O)C(C)C [TNLDSLPLVDTHSKX] (H-TNLDSLPLVDTHSK[Cit]-OH) , IC50 read as > 40000 nM

----------
# Tgt: HLA-DRB1*01:01 (Homo sapiens, UniProt P01903+P01911, A100R/D57E/F55L/F60I/F76Y/I96L/L162R/M171V/P40L/Q125E/R42F/V115G/Y59C)
# Construct: EBV transformed homozygous cell lines were used as sources of MHC molecules; endogenous in cells; host or cells: EBV transformed homozygous cell lines
# Method Summary: HLA class II peptide binding, inhibition of radiolabeled peptide binding to purified MHC
# Test Conditions: read-out: DRB1*01:01 binding capacity, WT peptide (IC50 nM)
Ends that are not written are not given here.
Assay Readout: log10(IC50) (log10 of the value in nM)
The figures below represent log10 of IC50, where IC50 is stated in nM.

Notebook: DIMRLREKLQEEMLQ [Vimentin 181 WT] , log10(IC50) read as 2.93

Notebook: ASRPSSSRSYVTTST [Vimentin 21 WT] , log10(IC50) read as 3.88

Notebook: TAALRDVRQQYESVA [Vimentin 266 WT] , log10(IC50) read as 2.89

Notebook: NDRFANYIDKVRFLE [Vimentin 111 WT] , log10(IC50) read as 2.94

Notebook: YKSKFADLSEAANRN [Vimentin 291 WT] , log10(IC50) read as 2.60

Notebook: MSTRSVSSSSYRRMF [Vimentin 1 WT] , log10(IC50) read as 2.61

Notebook: DVRQQYESVAAKNLQ [Vimentin 271 WT] , log10(IC50) read as 1.00

Notebook: AINTEFKNTRTNEKV [Vimentin 91 WT] , log10(IC50) read as 3.12

Notebook: DNASLARLDLERKVE [Vimentin 211 WT] , log10(IC50) read as 3.89

Notebook: VSSSSYRRMFGGPGT [Vimentin 6 WT] , log10(IC50) read as 1.40

Notebook: ELRRQVDQLTNDKAR [Vimentin 156 WT] , log10(IC50) read as 2.75

Notebook: YATRSSAVRLRSSVP [Vimentin 61 WT] , log10(IC50) read as 1.23

Notebook: SSRSYVTTSTRTYSL [Vimentin 26 WT] , log10(IC50) read as 1.85

Notebook: RSSVPGVRLLQDSVD [Vimentin 71 WT] , log10(IC50) read as 2.42

Notebook: ARLDLERKVESLQEE [Vimentin 216 WT] , log10(IC50) read as 3.80

----------
# Tgt: HLA-DRB1*01:01 (Homo sapiens, UniProt P01903+P01911, A100R/D57E/F55L/F60I/F76Y/I96L/L162R/M171V/P40L/Q125E/R42F/V115G/Y59C)
# Construct: EBV transformed homozygous cell lines were used as sources of MHC molecules; endogenous in cells; host or cells: EBV transformed homozygous cell lines
# Method Summary: HLA class II peptide binding, inhibition of radiolabeled peptide binding to purified MHC
# Test Conditions: citrullinated 15-mer (X); purified MHC, inhibition of radiolabeled peptide binding; dash = IC50 >40,000 nM; read-out: DRB1*01:01 binding capacity, Cit peptide (IC50 nM)
Square brackets hold non-standard residues; d marks the D form. Peptide text beside a SMILES is read from it. Cit = NC(=O)NCCC[C@H](N)C(=O)O
Kindly apply the following: 1 (yes) if IC50 is less than 2000 nM, 0 (no) in every other case.

[Q] Threshold test, IC50 < 2000 nM: CC[C@H](C)[C@H](NC(=O)[C@H](CC(=O)O)NC(=O)[C@H](CCC(=O)O)NC(=O)[C@H](C)NC(=O)[C@H](CC(C)C)NC(=O)[C@H](CC(N)=O)NC(=O)[C@@H](N)CC(=O)O)C(=O)N[C@@H](CCSC)C(=O)N[C@@H](CCCNC(=N)N)C(=O)N[C@@H](CC(C)C)C(=O)N[C@@H](CCCNC(N)=O)C(=O)N[C@@H](CCC(=O)O)C(=O)N[C@@H](CCCCN)C(=O)N[C@@H](CC(C)C)C(=O)N[C@@H](CCC(N)=O)C(=O)O [DNLAEDIMRLXEKLQ] (H-DNLAEDIMRL[Cit]EKLQ-OH)
[A] 1 (yes)

[Q] Threshold test, IC50 < 2000 nM: "CC[C@H](C)[C@H](NC(=O)[C@H](Cc1ccc(O)cc1)NC(=O)[C@H](CC(N)=O)NC(=O)[C@H](C)NC(=O)[C@H](Cc1ccccc1)NC(=O)[C@H](CCCNC(N)=O)NC(=O)[C@H](CC(=O)O)NC(=O)[C@H](CC(N)=O)NC(=O)[C@H](CC(C)C)NC(=O)[C@H](CCC(=O)O)NC(=O)[C@H](CCC(N)=O)NC(=O)[C@H](CC(C)C)NC(=O)[C@@H](N)CCC(=O)O)C(=O)N[C@@H](CC(=O)O)C(=O)N[C@@H](CCCCN)C(=O)O"
[A] 1 (yes)

[Q] Threshold test, IC50 < 2000 nM: CC(C)C[C@H](NC(=O)[C@H](CO)NC(=O)[C@H](Cc1ccc(O)cc1)NC(=O)[C@@H](NC(=O)[C@H](CCCNC(N)=O)NC(=O)[C@@H](NC(=O)[C@H](CO)NC(=O)[C@@H](NC(=O)[C@@H](NC(=O)[C@@H](NC(=O)[C@H](Cc1ccc(O)cc1)NC(=O)[C@H](CO)NC(=O)[C@H](CCCNC(=N)N)NC(=O)[C@H](CO)NC(=O)[C@@H](N)CO)C(C)C)[C@@H](C)O)[C@@H](C)O)[C@@H](C)O)[C@@H](C)O)C(=O)O [SSRSYVTTSTXTYSL] (H-SSRSYVTTST[Cit]TYSL-OH)
[A] 1 (yes)

[Q] Threshold test, IC50 < 2000 nM: "CSCC[C@H](NC(=O)[C@H](CCC(=O)O)NC(=O)[C@H](CCC(=O)O)NC(=O)[C@H](CCC(=O)O)NC(=O)[C@H](Cc1ccc(O)cc1)NC(=O)[C@H](CC(C)C)NC(=O)[C@H](CC(=O)O)NC(=O)CNC(=O)[C@@H](N)CC(C)C)C(=O)N[C@@H](CCCNC(=N)N)C(=O)N[C@@H](CCC(=O)O)C(=O)N[C@@H](CC(C)C)C(=O)N[C@@H](CCCNC(=N)N)C(=O)N[C@@H](CCCNC(N)=O)C(=O)N[C@@H](CCC(N)=O)C(=O)O"
[A] 0 (no)

[Q] Threshold test, IC50 < 2000 nM: "CSCC[C@H](NC(=O)[C@H](CCC(=O)O)NC(=O)[C@H](CCC(=O)O)NC(=O)[C@H](CCC(=O)O)NC(=O)[C@H](Cc1ccc(O)cc1)NC(=O)[C@H](CC(C)C)NC(=O)[C@H](CC(=O)O)NC(=O)CNC(=O)[C@@H](N)CC(C)C)C(=O)N[C@@H](CCCNC(=N)N)C(=O)N[C@@H](CCC(=O)O)C(=O)N[C@@H](CC(C)C)C(=O)N[C@@H](CCCNC(N)=O)C(=O)N[C@@H](CCCNC(=N)N)C(=O)N[C@@H](CCC(N)=O)C(=O)O"
[A] 0 (no)

[Q] Threshold test, IC50 < 2000 nM: CC[C@H](C)[C@H](NC(=O)[C@H](C)N)C(=O)N[C@@H](CC(N)=O)C(=O)N[C@H](C(=O)N[C@@H](CCC(=O)O)C(=O)N[C@@H](Cc1ccccc1)C(=O)N[C@@H](CCCCN)C(=O)N[C@@H](CC(N)=O)C(=O)N[C@H](C(=O)N[C@@H](CCCNC(N)=O)C(=O)N[C@H](C(=O)N[C@@H](CC(N)=O)C(=O)N[C@@H](CCC(=O)O)C(=O)N[C@@H](CCCCN)C(=O)N[C@H](C(=O)O)C(C)C)[C@@H](C)O)[C@@H](C)O)[C@@H](C)O [AINTEFKNTXTNEKV] (H-AINTEFKNT[Cit]TNEKV-OH)
[A] 0 (no)
